Each recorded value in this set is attributed to paper PMC9311798.

# experimentalTarget: mushroom tyrosinase (Agaricus bisporus, UniProt C7FF04)
# Construct: purchased Sigma-Aldrich
# Sequence (C7FF04 1-392): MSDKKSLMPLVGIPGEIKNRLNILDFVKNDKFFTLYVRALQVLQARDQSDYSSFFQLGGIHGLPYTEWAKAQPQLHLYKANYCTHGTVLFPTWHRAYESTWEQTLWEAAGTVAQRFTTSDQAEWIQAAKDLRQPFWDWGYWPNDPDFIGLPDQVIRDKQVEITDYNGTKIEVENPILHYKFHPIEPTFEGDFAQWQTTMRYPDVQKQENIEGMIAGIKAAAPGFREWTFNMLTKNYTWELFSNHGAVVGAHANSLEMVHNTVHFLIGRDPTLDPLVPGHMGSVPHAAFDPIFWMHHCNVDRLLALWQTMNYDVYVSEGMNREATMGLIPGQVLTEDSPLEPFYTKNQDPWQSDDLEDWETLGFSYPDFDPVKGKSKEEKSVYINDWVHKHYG
# experimentalDetails: Kinetic studies on the inhibition of mushroom tyrosinase (Lineweaver–Burk and Dixon plots)
# Assay type: biochemical
# assayContext: L-DOPA; Dixon plot
# Method: Lineweaver–Burk plots of compound 1b were acquired in the presence of L-tyrosine or L-DOPA as substrates. […] Initial rates of dopachrome production were determined by measuring the increases in optical density at 475 nm (ΔOD475/min) using a microplate reader (VersaMax^TM, Molecular Devices, Sunnyvale, CA, USA). […] Modes of tyrosinase inhibition were determined using plot convergence points.

| compoundSmiles | Ki |
| --- | --- |
| Oc1ccc(-c2nc3cc(C(F)(F)F)ccc3s2)c(O)c1 | 2.45 µM |
